Below is a list of entries, each paired with its recorded log10 of TGI value.
# Tested on: RXF 393 renal
# METHOD SUMMARY: NCI tumour cell line growth inhibition, 48 h
On a log10 scale: recorded TGI, unit µM.

COMPOUND | OBS VALUE
Cc1cc2nc3c4cc(O)ccc4n(CCN(C)C)c3nc2cc1C | 0.39
COc1ccccc1NC(=S)NN=C(C)c1cccc(C(C)=NNC(=S)Nc2ccccc2OC)n1 | 1.68
CCN1C/C(=C\c2cc(OC)c(OC)cc2OC)C(=O)/C(=C/c2cc(OC)c(OC)cc2OC)C1 | 0.87
Fc1cc2[nH]ncc2c2c3c(c(-c4cn[nH]c4C(F)(F)F)nc12)CCCC3 | 0.38

Fill in reported log10 of TGI for this entry: CC(N)C(Cc1ccc(Cl)cc1)c1ccc(Cl)cc1 (stereo not given) 1.41

Provide only the value of recorded log10 of TGI for COc1c(CC=C(C)C)c(O)c(C(CC(C)C)c2c(O)c3c(c(C(C)=O)c2O)OC(C(C)(C)O)C3)c(O)c1C(C)=O (stereo not given) 1.04

Recall and state the measured log10 of TGI for O=c1c2c(=NCCN3CCCC3)cc3c(=O)n(CCCN4CCOCC4)c(=O)c4c(-c5ccc(CN6CCCC6)cc5)cc(c(O)n1CCCN1CCOCC1)c2c4-3 . -1.11

Using the record for Cc1cc(S(=O)(=O)Nc2nc3ccccc3o2)c(SCc2ccccc2)cc1Cl , state its measured log10 of TGI. 1.79

State its log10 of TGI for this compound: CN(C)c1ccc(C=Nc2ccc(-c3nc4ccccc4[nH]3)cc2)cc1 1.90
